Each record here notes measured IC50.
# assaySystem: human NaV 1.8 (Homo sapiens)
# experiment: E-VIPR assay detecting and measuring NaV inhibition properties
# Format: cell-based
# reportedConditions: HEK cells expressing truncated human NaV 1.8; no human serum; read-out: IC50 in the E-VIPR Assay

>  <molecule>
COc1c([C@H]2[C@H](C(=O)Nc3ccnc(N4C(=O)CN(C)C[C@@H]4CO)c3)O[C@@](C)(C(F)(F)F)[C@H]2C)ccc(F)c1F [Compound 511]

>  <IC50>
< 10 nM

$$$$
>  <molecule>
C[C@H]1[C@@H](c2ccc(F)c(F)c2O[C@H]2C[C@@H](O)C2)[C@H](C(=O)Nc2ccnnc2)O[C@@]1(C)C(F)(F)F [Compound 658]

>  <IC50>
10 to 100 nM

$$$$

In the following, a different molecule is considered.
State its IC50 on human NaV 1.8 (Homo sapiens): COc1c([C@H]2[C@H](C(=O)Nc3ccc(CC4CCOC4)nc3)O[C@@](C)(C(F)(F)F)[C@H]2C)ccc(F)c1F (stereo partly drawn) [Compound 392]
100 to 1000 nM

---

# assaySystem: human NaV 1.8 (Homo sapiens)
# experiment: E-VIPR assay detecting and measuring NaV inhibition properties
# Format: cell-based
# reportedConditions: HEK cells expressing truncated human NaV 1.8; no human serum; read-out: IC50 in the E-VIPR Assay
# Source text: Sodium ion channels are voltage-dependent proteins that can be activated by inducing membrane voltage changes by applying electric fields. The electrical stimulation instrument and methods of use, referred to as E-VIPR, are described in International Publication No. WO 2002/008748 A3 and C.-J. Huang et al. Characterization of voltage-gated sodium channel blockers by electrical stimulation and fluorescence detection of membrane potential, 24 Nature Biotech. […]
pIC50: −log10 of the molar value.
Each record here notes measured pIC50.

// solved cases for pIC50 follow
>  <compound>
C[C@H]1[C@@H](c2ccc(F)c(F)c2OCCOC(F)F)[C@H](C(=O)Nc2ccnc(CO)c2)O[C@@]1(C)C(F)(F)F

>  <experimentalEndpoint>
pIC50

>  <readoutValue>
> 8.00

$$$$
>  <compound>
CNCC(=O)N(C)c1cc(NC(=O)[C@@H]2O[C@@](C)(C(F)(F)F)[C@@H](C)[C@H]2c2ccc(F)c(F)c2OC)ccn1

>  <experimentalEndpoint>
pIC50

>  <readoutValue>
> 8.00

$$$$
>  <compound>
COc1c([C@H]2[C@H](C(=O)Nc3ccnc(OC4CCN(C)C4=O)c3)O[C@@](C)(C(F)(F)F)[C@H]2C)ccc(F)c1F (single isomer, unassigned) [Compound 197]

>  <experimentalEndpoint>
pIC50

>  <readoutValue>
> 8.00

$$$$
>  <compound>
C[C@H]1[C@@H](c2ccc(F)c(F)c2OCCO)[C@H](C(=O)Nc2ccc3nncn3c2)O[C@@]1(C)C(F)(F)F

>  <experimentalEndpoint>
pIC50

>  <readoutValue>
7.00 to 8.00

$$$$

Using the record for "COc1c([C@H]2[C@H](C(=O)Nc3ccnc(CO)n3)O[C@@](C)(C(F)(F)F)[C@H]2C)ccc(F)c1F" , report its pIC50.
7.00 to 8.00

Using the record for "C[C@H]1[C@@H](c2ccc(F)c(F)c2OCCO)[C@H](C(=O)Nc2cncs2)O[C@@]1(C)C(F)(F)F" , report its pIC50.
7.00 to 8.00

---

Each record here notes measured IC50.
# assaySystem: human NaV 1.8 (Homo sapiens, UniProt Q9Y5Y9)
# Sequence (Q9Y5Y9 126-399 limits assumed): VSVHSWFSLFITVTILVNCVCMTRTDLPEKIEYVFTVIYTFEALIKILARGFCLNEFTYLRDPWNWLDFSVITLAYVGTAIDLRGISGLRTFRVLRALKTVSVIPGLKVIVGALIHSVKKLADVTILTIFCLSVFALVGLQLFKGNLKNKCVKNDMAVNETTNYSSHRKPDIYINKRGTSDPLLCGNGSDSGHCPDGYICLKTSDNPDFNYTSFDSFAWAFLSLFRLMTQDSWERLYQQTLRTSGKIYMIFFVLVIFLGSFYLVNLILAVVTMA
# Sequence (Q9Y5Y9 660-890 limits assumed): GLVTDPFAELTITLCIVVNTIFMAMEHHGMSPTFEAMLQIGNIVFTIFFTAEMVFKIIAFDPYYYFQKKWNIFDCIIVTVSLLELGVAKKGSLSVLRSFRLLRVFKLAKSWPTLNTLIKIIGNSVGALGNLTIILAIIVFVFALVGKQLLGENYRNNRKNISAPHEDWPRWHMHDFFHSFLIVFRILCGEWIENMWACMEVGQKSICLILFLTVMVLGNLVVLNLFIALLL
# Sequence (Q9Y5Y9 1148-1722 limits assumed): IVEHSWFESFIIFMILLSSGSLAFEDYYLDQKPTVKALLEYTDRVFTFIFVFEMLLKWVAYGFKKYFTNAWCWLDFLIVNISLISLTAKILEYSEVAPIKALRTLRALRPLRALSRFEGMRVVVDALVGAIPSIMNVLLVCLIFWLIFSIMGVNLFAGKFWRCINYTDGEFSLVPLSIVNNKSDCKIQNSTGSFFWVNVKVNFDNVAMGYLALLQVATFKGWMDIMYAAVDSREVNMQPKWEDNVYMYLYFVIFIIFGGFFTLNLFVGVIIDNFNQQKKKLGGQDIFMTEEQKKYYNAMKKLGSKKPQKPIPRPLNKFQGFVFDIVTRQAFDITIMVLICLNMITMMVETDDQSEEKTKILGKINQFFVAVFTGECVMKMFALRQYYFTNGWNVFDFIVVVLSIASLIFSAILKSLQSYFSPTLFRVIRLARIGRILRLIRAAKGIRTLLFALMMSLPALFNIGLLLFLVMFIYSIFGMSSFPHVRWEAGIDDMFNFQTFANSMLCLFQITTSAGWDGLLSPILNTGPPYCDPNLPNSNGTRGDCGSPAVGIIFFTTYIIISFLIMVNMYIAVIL
# experiment: E-VIPR assay detecting and measuring NaV inhibition properties
# Type: cell-based
# reportedConditions: HEK cells expressing truncated human NaV 1.8; no human serum; read-out: IC50 in the E-VIPR Assay

>  <compound>
COc1c(C2C(C(=O)Nc3cncnc3)OC(C)(C(F)(F)F)C2C)ccc(F)c1F (single isomer, unassigned) [Compound 38]

>  <assaySystem>
human NaV 1.8 (Homo sapiens, UniProt Q9Y5Y9)

>  <IC50>
< 10 nM

$$$$
>  <compound>
CCOc1c([C@@H]2[C@@H](C(=O)Nc3ccnc(S(C)(=N)=O)c3)O[C@](C)(C(F)(F)F)[C@@H]2C)ccc(F)c1C (relative stereo) [Compound 124]

>  <assaySystem>
human NaV 1.8 (Homo sapiens, UniProt Q9Y5Y9)

>  <IC50>
100 to 1000 nM

$$$$

In the following, a different compound is considered.
Using the record for COc1c([C@H]2[C@H](C(=O)Nc3cnc(CCO)n3C)O[C@@](C)(C(F)(F)F)[C@H]2C)ccc(F)c1F [Compound 445] , report its IC50.
≥ 1000 nM

---

Each record here notes measured IC50.
# assaySystem: human NaV 1.8 (Homo sapiens, UniProt Q9Y5Y9)
# experiment: E-VIPR assay detecting and measuring NaV inhibition properties
# Type: cell-based
# reportedConditions: HEK cells expressing truncated human NaV 1.8; in the presence of human serum (compound numbers followed by *); read-out: IC50 in the E-VIPR Assay, performed in the presence of human serum

>  <compound>
COc1c([C@H]2C[C@@](C)(C(F)(F)F)O[C@@H]2C(=O)Nc2ccnc(C(O)CO)c2)ccc(F)c1C (single isomer, unassigned)

>  <assaySystem>
human NaV 1.8 (Homo sapiens, UniProt Q9Y5Y9)

>  <experimentalEndpoint>
IC50

>  <readoutValue>
≥ 1000 nM

$$$$

State its IC50 on human NaV 1.8 (Homo sapiens, UniProt Q9Y5Y9): COc1c(C2C(C(=O)Nc3ccnc(C(O)C(C)O)c3)OC(C)(C(F)(F)F)C2C)ccc(F)c1C (single isomer, unassigned) [Compound 143]
≥ 1000 nM

State its IC50 on human NaV 1.8 (Homo sapiens, UniProt Q9Y5Y9): COc1c([C@@H]2C[C@](C)(C(F)(F)F)O[C@H]2C(=O)Nc2ccnc([C@@H](O)[C@H](C)O)c2)ccc(F)c1F (relative stereo)
10 to 100 nM

State its IC50 on human NaV 1.8 (Homo sapiens, UniProt Q9Y5Y9): COc1c([C@@H]2[C@@H](C(=O)Nc3cc(C(O)CO)ncc3F)O[C@](C)(C(F)(F)F)[C@@H]2C)ccc(F)c1C (single isomer, unassigned)
≥ 1000 nM

State its IC50 on human NaV 1.8 (Homo sapiens, UniProt Q9Y5Y9): COc1c(C2C(C(=O)Nc3ccnc(C(O)C(C)O)c3)OC(C)(C(F)(F)F)C2C)ccc(F)c1C (single isomer, unassigned) [Compound 146]
≥ 1000 nM

State its IC50 on human NaV 1.8 (Homo sapiens, UniProt Q9Y5Y9): COc1c(C2C(C(=O)Nc3ccnc(C(O)C(C)O)c3)OC(C)(C(F)(F)F)C2C)ccc(F)c1C (single isomer, unassigned) [Compound 142]
≥ 1000 nM

---

# assaySystem: human NaV 1.8 (Homo sapiens)
# experiment: E-VIPR assay detecting and measuring NaV inhibition properties
# Assay type: cell-based
# reportedConditions: HEK cells expressing truncated human NaV 1.8; no human serum; read-out: IC50 in the E-VIPR Assay
experimentalEndpoint: IC50

>  <compound>
COc1c([C@H]2[C@H](C(=O)N[C@@H]3C[C@H]3c3cnn(C)c3)O[C@@](C)(C(F)(F)F)[C@H]2C)ccc(F)c1F (relative stereo)

>  <assaySystem>
human NaV 1.8 (Homo sapiens)

>  <IC50>
≥ 1000 nM

$$$$

Using the record for "Cc1nocc1NC(=O)[C@@H]1O[C@@](C)(C(F)(F)F)[C@@H](C)[C@H]1c1ccc(F)c(F)c1OCCN1CC(C)(O)C1" , report its IC50.
100 to 1000 nM

Using the record for "COc1c([C@H]2[C@H](C(=O)Nc3ccc(-c4cnco4)nc3)O[C@@](C)(C(F)(F)F)[C@H]2C)ccc(F)c1F" , report its IC50.
100 to 1000 nM

Using the record for "COc1c([C@H]2[C@H](C(=O)N3Cc4ccncc4C3)O[C@@](C)(C(F)(F)F)[C@H]2C)ccc(F)c1F" , report its IC50.
≥ 1000 nM

Using the record for "COc1c([C@H]2[C@H](C(=O)NC3(c4ccccc4)COC3)O[C@@](C)(C(F)(F)F)[C@H]2C)ccc(F)c1F" , report its IC50.
≥ 1000 nM

Using the record for CNC(COC)c1cc(NC(=O)[C@@H]2O[C@@](C)(C(F)(F)F)[C@@H](C)[C@H]2c2ccc(F)c(F)c2OC)c(F)cn1 (single isomer, unassigned) , report its IC50.
< 10 nM

Using the record for "COc1c([C@H]2[C@H](C(=O)Nc3ccnc(CCO)c3)O[C@@](C)(C(F)(F)F)[C@H]2C)ccc(F)c1F" , report its IC50.
< 10 nM

---

Each record here notes measured IC50.
# assaySystem: human NaV 1.8 (Homo sapiens)
# experiment: E-VIPR assay detecting and measuring NaV inhibition properties
# Format: cell-based
# reportedConditions: HEK cells expressing truncated human NaV 1.8; no human serum; read-out: IC50 in the E-VIPR Assay

// solved cases for IC50 follow
>  <compound>
CCOc1c(C2C(C(=O)Nc3cc(S(C)(=N)=O)c[n+](C)c3)OC(C)(C(F)(F)F)C2C)ccc(F)c1F (stereo not drawn)

>  <assaySystem>
human NaV 1.8 (Homo sapiens)

>  <experimentalEndpoint>
IC50

>  <readoutValue>
100 to 1000 nM

$$$$
>  <compound>
COc1c([C@H]2[C@H](C(=O)Nc3ccnc(N(C)C)c3)O[C@@](C)(C(F)(F)F)[C@H]2C)ccc(F)c1F

>  <assaySystem>
human NaV 1.8 (Homo sapiens)

>  <experimentalEndpoint>
IC50

>  <readoutValue>
10 to 100 nM

$$$$
>  <compound>
COc1c([C@H]2[C@H](C(=O)NC3CCN(C(N)=O)CC3)O[C@@](C)(C(F)(F)F)[C@H]2C)ccc(F)c1F

>  <assaySystem>
human NaV 1.8 (Homo sapiens)

>  <experimentalEndpoint>
IC50

>  <readoutValue>
≥ 1000 nM

$$$$
>  <compound>
COc1c([C@H]2[C@H](C(=O)NCC(O)c3cnn(C)c3)O[C@@](C)(C(F)(F)F)[C@H]2C)ccc(F)c1F (stereo partly drawn)

>  <assaySystem>
human NaV 1.8 (Homo sapiens)

>  <experimentalEndpoint>
IC50

>  <readoutValue>
≥ 1000 nM

$$$$
>  <compound>
COc1c([C@H]2[C@H](C(=O)Nc3ccn4c(=O)n(CCO)nc4c3)O[C@@](C)(C(F)(F)F)[C@H]2C)ccc(F)c1F

>  <assaySystem>
human NaV 1.8 (Homo sapiens)

>  <experimentalEndpoint>
IC50

>  <readoutValue>
10 to 100 nM

$$$$

In the following, a different compound is considered.
Using the record for CCOc1c([C@@H]2[C@@H](C(=O)Nc3ccnc(S(C)(=N)=O)c3)O[C@](C)(C(F)(F)F)[C@@H]2C)ccc(F)c1F (single isomer, unassigned) [Compound 10] , report its IC50.
100 to 1000 nM
